Where do these numbers come from? They come from patent US5300279A.

# experiment.notes: biolocalization of the radionuclide in rats (tissue distribution after tail vein injection)
# Type: in vivo, male Sprague Dawley rats
# experimental.setup: Yb-175; rats; two hour; average of 5 rats
Reported % Dose in Skeleton values for the following compounds.
endpoint.name: % Dose in Skeleton (% Dose)

>>> numeric_value("O=P(O)(O)CN(CCN(CP(=O)(O)O)CP(=O)(O)O)CP(=O)(O)O.[175Yb+3] [Example 9]")
50
>>> numeric_value("O=P(O)(O)CN(CP(=O)(O)O)CP(=O)(O)O.[175Yb+3] [Example 13]")
63
>>> numeric_value("O=P(O)(O)CN(CCN(CP(=O)(O)O)CP(=O)(O)O)CCN(CP(=O)(O)O)CP(=O)(O)O.[175Yb+3] [Example 10]")
25
>>> numeric_value("O=P(O)(O)CN(CCO)CCN(CP(=O)(O)O)CP(=O)(O)O.[175Yb+3] [Example 11]")
56
